biological target: Human KIF18A (amino acid sequence 1-417) (Homo sapiens)
Sequence (Q8NI77 1-417): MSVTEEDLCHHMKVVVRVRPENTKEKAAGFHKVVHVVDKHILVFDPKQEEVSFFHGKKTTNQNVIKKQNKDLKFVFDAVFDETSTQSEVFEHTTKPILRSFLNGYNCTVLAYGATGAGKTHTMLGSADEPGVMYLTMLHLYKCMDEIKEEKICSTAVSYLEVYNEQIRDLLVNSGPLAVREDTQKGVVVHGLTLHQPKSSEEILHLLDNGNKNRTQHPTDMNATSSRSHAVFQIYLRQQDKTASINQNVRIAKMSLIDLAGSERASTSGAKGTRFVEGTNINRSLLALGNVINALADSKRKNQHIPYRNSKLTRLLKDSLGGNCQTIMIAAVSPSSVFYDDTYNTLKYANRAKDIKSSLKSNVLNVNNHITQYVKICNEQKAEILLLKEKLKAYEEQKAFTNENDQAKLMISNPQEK
Sequence (Q2XVP4 whole entry partner): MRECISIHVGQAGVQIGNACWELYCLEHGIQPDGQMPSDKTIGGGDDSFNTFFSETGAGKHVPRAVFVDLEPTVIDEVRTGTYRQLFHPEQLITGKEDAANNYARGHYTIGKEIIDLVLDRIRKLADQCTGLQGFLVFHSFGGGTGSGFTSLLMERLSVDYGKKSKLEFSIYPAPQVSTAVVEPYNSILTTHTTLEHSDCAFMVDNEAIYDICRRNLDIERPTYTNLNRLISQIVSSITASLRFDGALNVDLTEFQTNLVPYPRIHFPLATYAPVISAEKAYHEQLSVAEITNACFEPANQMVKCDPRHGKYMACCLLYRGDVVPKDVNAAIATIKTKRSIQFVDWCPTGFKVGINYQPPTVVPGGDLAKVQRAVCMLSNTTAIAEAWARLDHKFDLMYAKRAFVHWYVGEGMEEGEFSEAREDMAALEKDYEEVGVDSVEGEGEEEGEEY
Sequence (P02554 whole entry partner): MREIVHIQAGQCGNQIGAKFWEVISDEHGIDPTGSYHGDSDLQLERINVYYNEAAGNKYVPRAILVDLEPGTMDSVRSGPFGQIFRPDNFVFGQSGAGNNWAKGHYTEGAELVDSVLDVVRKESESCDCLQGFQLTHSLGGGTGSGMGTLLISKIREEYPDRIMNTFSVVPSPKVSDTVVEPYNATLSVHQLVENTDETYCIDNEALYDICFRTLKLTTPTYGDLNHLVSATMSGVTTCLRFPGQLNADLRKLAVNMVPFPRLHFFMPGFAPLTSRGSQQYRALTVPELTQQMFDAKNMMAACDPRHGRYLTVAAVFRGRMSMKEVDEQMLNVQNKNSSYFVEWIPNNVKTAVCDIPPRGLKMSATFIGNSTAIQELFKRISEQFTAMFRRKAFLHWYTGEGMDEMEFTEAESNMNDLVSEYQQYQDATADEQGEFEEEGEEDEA
pIC50: −log10 of the molar value.
Threshold rule: pIC50 greater than or equal to 7 is Fulfilled; below that, Not fulfilled.

{"columns": ["compound", "label.class"],
 "data": [
  ["Cc1cc(-c2cn(-c3ccc(NS(=O)(=O)CCO)cc3N3CCC4(CC3)CC4)nn2)nc(C2COCCO2)n1 (centres unmarked)", "Not fulfilled"],
  ["COc1cc(-c2nnc(-c3ccc(NS(=O)(=O)CCO)cc3N3CCC4(CC3)CC4)o2)cc(N2CCC(F)(F)CC2)n1", "Fulfilled"],
  ["CC(C)(CO)S(=O)(=O)Nc1ccc(-n2cc(-c3cc(N4CCC(F)(F)CC4)c4ncccc4c3)nn2)c(N2CCC3(CC2)CC3)c1", "Not fulfilled"],
  ["Cc1cc(-c2cn(-c3ccc(NS(=O)(=O)CCO)cc3N3CCC4(CC3)CC4)nn2)c(F)c(N2CCC(F)(F)CC2)n1", "Not fulfilled"],
  ["Cc1cc(-n2cc(-c3ccc(NS(=O)(=O)[C@H](C)CO)cc3N3CCC4(CC3)CC4)nn2)nc(N2CCC(F)(F)CC2)n1", "Not fulfilled"],
  ["Cc1cc(-n2cnc(-c3ccc(NS(=O)(=O)CCO)cc3N3CCC4(CC3)CC4)c2)cc(N2CCC(F)(F)CC2)n1", "Not fulfilled"],
  ["CN(C)c1cc(-c2cn(-c3ccc(NS(=O)(=O)CCO)cc3N3CCC4(CC3)CC4)nn2)nc(N2CCC(F)(F)CC2)n1", "Not fulfilled"],
  ["COc1cc(-c2cn(-c3ccc(NS(=O)(=O)CCO)cc3N3CCC4(CC3)CC4)cn2)nc(N2CCC(F)(F)CC2)n1", "Not fulfilled"],
  ["Cc1cc(-c2nnc(-c3ccc(NS(=O)(=O)CCO)cc3N3CCC4(CC3)CC4)o2)nc(N2CCO[C@H](C)C2)n1", "Fulfilled"],
  ["Cc1cc(-c2nnn(-c3ccc(NS(=O)(=O)CCO)cc3N3CCC4(CC3)CC4)n2)nc(N2CCC(F)(F)CC2)n1", "Not fulfilled"],
  ["COc1cc(-n2cc(-c3ccc(NS(=O)(=O)CCO)cc3N3CCC4(CC3)CC4)nn2)nc(N2CCC(F)(F)CC2)n1", "Fulfilled"],
  ["Cc1cc(-c2cn(-c3ccc(NS(=O)(=O)C4(CO)CC4)cc3N3CCC4(CC3)CC4)nn2)nc(N2CCC(F)(F)CC2)n1", "Not fulfilled"],
  ["O=S(=O)(CCO)Nc1ccc(-n2cc(-c3cc(OCC4CCOC4)nc(N4CCC(F)(F)CC4)n3)nn2)c(N2CCC3(CC2)CC3)c1 (centres unmarked)", "Not fulfilled"],
  ["Cc1cc(-n2cc(-c3ccc(NS(=O)(=O)[C@@H](C)CO)cc3N3CCC4(CC3)CC4)nn2)nc(N2CCC(F)(F)CC2)n1", "Not fulfilled"],
  ["Cc1cc(-c2cn(-c3cnc(NS(=O)(=O)CCO)cc3N3CCC4(CC3)CC4)nn2)nc(N2CCC(F)(F)CC2)n1", "Fulfilled"]
]}
